Experiment: yeast display, Sf9 membrane polyspecificity reagent, FACS + sequencing; frameworks hold sequencing errors
measurement type: polyreactivity (PSR sort gate)

Consider the following illustrative entries.
sequence code: QVQLVESGGCLVQAGGSLRLSCAASGYIFFINSMGWYRQAPGKERELVAAITRRGVSTYYADSVKGRFTISRDNAKNSVYLQMHSLKPEDTAVYYCATEHNHLGYYYWGQGTQVTVSS
polyreactivity (PSR sort gate): low polyreactivity
//
sequence code: QVQLVESGGGLVQAGGSLRLSCAASGSIFGKNAMGWYRQAPGKERELVAAISATGSRTYYADSVKGRFTISRDNAKNTVYLQMISLKPEETAVYSCTKLVRGVRPEEYDYGGQGTQVTVSS
polyreactivity (PSR sort gate): high polyreactivity
//
sequence code: QDHLVESGGGLVQAGGSLRLSCAPSGSIFSYNSMGWYRQAPGKERELVAGISSDGSTNYADSVKGRFSISRDNAKNTVYLQMNSLKPEDTAVYYCAADEIVWQADLWGYGIYDYWGHGTQVTVSS
polyreactivity (PSR sort gate): high polyreactivity
//
sequence code: QVQLVESGGGLVQAGGSLRLSCAASGSIFKTNAMGWYRQAPGKERELVAGISNGGSTNYADSVKGRFTISRDNAKNTVYLQMNSLKPEDTAVYYCAKKGYASRYFIYDYWGQGTQVTVSS
polyreactivity (PSR sort gate): low polyreactivity

Attention now shifts to the item below.
Recorded polyreactivity (PSR sort gate) for QVLLQESGGLVQAGCSLRMSCAESGSISTALSMGWYRQAPGKERELVATISDGASTNYADSVKGRFTISRVNAKNTLYLQMNSLKPEDTEVYYCAAQSQYRPDHRYWGQGTKVTVSS , please?
high polyreactivity

Every entry's value here was drawn from the nanobody polyreactivity screen of Harvey et al. (2022).
